# System: HCT-15
Listed here: items and their measured GI50.
Dear colleague, please return just the value in µM, with no unit written.

Example molecules with recorded GI50:
| molecule | GI50, µM |
| --- | --- |
| Cn1c(C2CCCc3c2c2ccccc2n3C)cc2ccccc21 (stereo not given) | 43.1 |
| Cc1c(C(=O)C/C(=N\O)C(=O)Nc2cc(Cl)c(Cl)cc2Cl)[n+]([O-])c2ccccc2[n+]1[O-] | 8.17 |
| Cc1cnoc1NS(=O)(=O)c1ccc(Nc2nnc(/C=C/c3c(O)ccc4ccccc34)c(=O)n2N)cc1 | 6.37 |

Next:
Bench note: what GI50 did COC(=O)C1=C(C(=O)Nc2cccnc2Cl)N(c2ccc(OC)cc2[N+](=O)[O-])C(c2ccc(C)cc2)=CC1c1ccc(OC)cc1OC (stereo not given) show? 4.27
